B1: tRNA (parent)
chain: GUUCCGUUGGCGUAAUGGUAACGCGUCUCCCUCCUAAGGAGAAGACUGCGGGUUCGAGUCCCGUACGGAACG

variants of: B1; assay: yeast fitness relative to wild type (ratio to wild type); higher = fitter; tRNA-Arg(CCU), competitive growth, 37 C, YPD
This sample holds only a part of the variants without activity.
PROPERTY NAME: yeast fitness

Query block: Quick check: yeast fitness of A20G C22A A42G ?
Result block: 0.557

Query block: Quick check: yeast fitness of G6C U7G G17C C60G ?
Result block: 0.574

Query block: Quick check: yeast fitness of C5A A45U C49U ?
Result block: 0.64

Query block: Quick check: yeast fitness of U2C A20U G38C ?
Result block: ≤ 0.5

Query block: Quick check: yeast fitness of A14G A65G A70C ?
Result block: 0.755

Query block: Quick check: yeast fitness of A14C C24U C31U A40U G44A ?
Result block: ≤ 0.5

Query block: Quick check: yeast fitness of U7C A21C C34G U35G G44C C61G ?
Result block: 0.636

Query block: Quick check: yeast fitness of C22A A43U C60A A65G ?
Result block: 0.683

Query block: Quick check: yeast fitness of U2A U7A U54A ?
Result block: ≤ 0.5

Query block: Quick check: yeast fitness of C11U C33U A43G ?
Result block: 0.595

Query block: Quick check: yeast fitness of C24A U26G A43C U64C ?
Result block: ≤ 0.5

Query block: Quick check: yeast fitness of U3C C22G G52C G67C ?
Result block: ≤ 0.5

Query block: Quick check: yeast fitness of C4A U35A U47C C49U C62A A69G ?
Result block: ≤ 0.5

Query block: Quick check: yeast fitness of G39U U53A C55U ?
Result block: 0.684

Query block: Quick check: yeast fitness of G41A A42G ?
Result block: 0.911

Query block: Quick check: yeast fitness of U2A A14C C30U C34G G63A ?
Result block: 0.574

Query block: Quick check: yeast fitness of C11A A37C A45G ?
Result block: ≤ 0.5

Query block: Quick check: yeast fitness of G18C C22A U32C A45C C46U A65C ?
Result block: ≤ 0.5

Query block: Quick check: yeast fitness of G9C A14U C27G C29U C46U C60G ?
Result block: 0.596

Query block: Quick check: yeast fitness of G6A A14C G58A ?
Result block: 0.613

Query block: Quick check: yeast fitness of C11U C31G U64G A69G ?
Result block: 0.842

Query block: Quick check: yeast fitness of C30G C60A ?
Result block: 0.739

Query block: Quick check: yeast fitness of G6A G23A C24G G44A ?
Result block: ≤ 0.5

Query block: Quick check: yeast fitness of C31A A40U C46A A70C ?
Result block: 0.626

Query block: Quick check: yeast fitness of C11G C49G C60A A70U ?
Result block: ≤ 0.5

Query block: Quick check: yeast fitness of U3A U26A C34U U47G U64A ?
Result block: ≤ 0.5

Query block: Quick check: yeast fitness of U32C A57G ?
Result block: 0.861

Query block: Quick check: yeast fitness of C24A C30U A45G U54C A57U C62U ?
Result block: 0.548

Query block: Quick check: yeast fitness of G25A C31G A45U ?
Result block: 0.612

Query block: Quick check: yeast fitness of A21G C24G A37U ?
Result block: 0.573

Query block: Quick check: yeast fitness of C4A G6A C11A C22U C29U C61A G67A ?
Result block: ≤ 0.5

Query block: Quick check: yeast fitness of U2C A15U C30G C55U ?
Result block: 0.666

Query block: Quick check: yeast fitness of U3C A40U A69U ?
Result block: 0.755

Query block: Quick check: yeast fitness of G6A C24U U32G A40U U64G ?
Result block: ≤ 0.5

Query block: Quick check: yeast fitness of U8C A36U G38A G68C ?
Result block: ≤ 0.5

Query block: Quick check: yeast fitness of C5A C31U C33U A42C C49U A65C ?
Result block: ≤ 0.5

Query block: Quick check: yeast fitness of C30G A69G ?
Result block: ≤ 0.5

Query block: Quick check: yeast fitness of C5A A14G A15G C22G A37U ?
Result block: ≤ 0.5

Query block: Quick check: yeast fitness of U7A C29G ?
Result block: ≤ 0.5

Query block: Quick check: yeast fitness of C27U U28G A42U ?
Result block: 0.535

Query block: Quick check: yeast fitness of C5G C31U A36C G38A ?
Result block: 0.557

Query block: Quick check: yeast fitness of C29A A37G ?
Result block: 0.545

Query block: Quick check: yeast fitness of U13C G25C C61U ?
Result block: 1.14

Query block: Quick check: yeast fitness of A14U C55A ?
Result block: 0.575

Query block: Quick check: yeast fitness of A37U A42C A69C ?
Result block: ≤ 0.5

Query block: Quick check: yeast fitness of C5G U64A ?
Result block: 0.784
